target: Amine oxidase [flavin-containing] A (Rattus norvegicus); assay: In vitro inhibitory activity on rat brain by monoamine oxidase A (MAO-A)
Sequence (P21396 whole entry): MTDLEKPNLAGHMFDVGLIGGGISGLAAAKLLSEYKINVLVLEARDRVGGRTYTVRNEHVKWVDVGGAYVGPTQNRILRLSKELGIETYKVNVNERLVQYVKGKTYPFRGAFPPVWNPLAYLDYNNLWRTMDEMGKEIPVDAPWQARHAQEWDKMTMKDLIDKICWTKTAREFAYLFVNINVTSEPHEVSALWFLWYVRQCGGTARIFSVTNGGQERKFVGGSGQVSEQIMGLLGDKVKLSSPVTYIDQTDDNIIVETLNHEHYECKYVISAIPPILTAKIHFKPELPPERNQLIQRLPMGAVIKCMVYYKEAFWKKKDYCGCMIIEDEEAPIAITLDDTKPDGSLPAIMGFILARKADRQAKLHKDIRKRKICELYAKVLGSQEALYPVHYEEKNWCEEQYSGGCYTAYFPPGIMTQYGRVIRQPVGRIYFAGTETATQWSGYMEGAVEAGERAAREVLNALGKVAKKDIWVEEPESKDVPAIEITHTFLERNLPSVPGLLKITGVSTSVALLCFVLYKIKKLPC
propertyName: IC50 (µM)

1) N#CCCN1N=C(c2ccc(OCc3ccc([N+](=O)[O-])cc3)cc2)OCC1=O : 2
2) N#CCCn1nc(-c2ccc(OCc3ccccc3)cc2)oc1=S : 12
3) O=c1oc(-c2ccc(OCc3ccccc3)cc2)nn1CCO : 140
4) Cc1cccc(COc2ccc(C3=NN(CCC#N)C(=O)CO3)cc2)c1 : 40
5) N#CCCn1nc(-c2ccc(OCc3ccccc3)cc2)sc1=S : 160
6) N#CCCN1N=C(c2ccc(OCc3cccc(Cl)c3)cc2)OCC1=O : 13
7) N#CCCn1nc(-c2ccc(OCc3ccc([N+](=O)[O-])cc3)cc2)oc1=S : 2.6
